Target: SSB-2 SPRY domain (SSB-2ΔSB, residues 12-224) (Mus musculus, UniProt O88838)
Construct: GST (N, cleaved yes); made in house; host or cells: E. coli BL21 (DE3)
Sequence (O88838 12-224): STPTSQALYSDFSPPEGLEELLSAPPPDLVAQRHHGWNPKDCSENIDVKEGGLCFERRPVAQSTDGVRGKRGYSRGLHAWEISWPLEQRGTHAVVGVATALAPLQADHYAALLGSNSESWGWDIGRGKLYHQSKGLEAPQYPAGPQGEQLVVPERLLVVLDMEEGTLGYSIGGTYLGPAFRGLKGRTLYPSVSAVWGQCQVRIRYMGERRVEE
Experiment: ITC of SSB-2 SPRY domain with iNOS N-terminal peptides
Assay type: binding
Details: 25° C., 100 mM TrisHCl, 150 mM NaCl, pH 8.0
Measured quantity: pKd
The value called pKd is obtained by taking minus log10 of the concentration in mol/L.

Query: So what does the record say about pKd for Ac-KEEKDINNNVKKT-NH2 [I, Ac-KEEKDINNNVKKT-NH2] ?
Response: 7.89
